Entries and their growth inhibition
# assay.method.text: inhibition of 3D7 malaria parasite growth – strain 3D7 (AID 2306);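 also: 0% = DMSO wells and 100% = chloroquine plus artemisinin control wells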
# experimental.conditions: P. falciparum 3D7 erythrocytic growth, LDH absorbance, 72 h; at 2 µM; hits give high values
reported.metric: growth inhibition (%)

INSERT INTO measurements (molecule, reported_metric, readout_number) VALUES
  ('O=C(C=Cc1ccc(Cl)c(Cl)c1)NCCCCCN1CCCC(CCCNS(=O)(=O)c2cccc(C(F)(F)F)c2)C1 (stereo unspecified)', 'growth inhibition', 94),
  ('c1ccc(OCCCCN2CCCCC2)cc1', 'growth inhibition', 95),
  ('CCN1C(=O)N(CCC(C)C)C2(CCN(Cc3ccc(OC)cc3O)CC2)C1=O', 'growth inhibition', 89),
  ('CCN1CCN(CCCNc2c3ccc(Cl)cc3nc3ccc(O)cc23)CC1', 'growth inhibition', 103),
  ('Cc1cc(-c2cccc(CNC3CCN(C)CC3)c2)ccc1S(=O)(=O)NCCN1CCCC1', 'growth inhibition', 100),
  ('O=C(NCc1ccc(Cl)cc1)c1ccc(C(=O)NCC2CCCN2CC2CCCCC2)cc1 (stereo unspecified)', 'growth inhibition', 97),
  ('CN1CCN(CC(=O)Nc2cccc(-c3ccc(-c4nc5ccc(F)cc5[nH]4)cc3)c2)CC1', 'growth inhibition', 101),
  ('Nc1nc(N)c2nc(C3CC=CCC3)c(N)nc2n1 (stereo unspecified)', 'growth inhibition', 95),
  ('CCOCc1cnc(C)nc1NCC(=O)c1c(C)[nH]c2cc(C)ccc12', 'growth inhibition', 89),
  ('NC(=O)c1cccc(C(=O)Nc2cccc(-c3cccc(-c4nc5ccccc5[nH]4)c3)c2)c1', 'growth inhibition', 100),
  ('Cc1ccc(CN2CCC(C(=O)Nc3ccc(-c4cc5ccccc5[nH]4)cc3)CC2)o1', 'growth inhibition', 92),
  ('COc1ccc(NC(=O)Nc2ccc(-c3ccncc3)c(Cl)c2)cc1N1CCN(C)CC1', 'growth inhibition', 98),
  ('Cc1cccn2c(=O)c3cc(C(=O)NCCN4CCOCC4)c(=N)n(CCc4ccccc4)c3nc12', 'growth inhibition', 100),
  ('O=C(CCN1CCCCC1)Nc1ccc(Nc2nccc(NCC(O)c3ccccc3)n2)cc1 (stereo unspecified)', 'growth inhibition', 102),
  ('Cc1cc(C)n(Cc2ccc(C(=O)NCC3CCCCC3)cc2)n1', 'growth inhibition', 95),
  ('Cc1cc(C(=O)CN2C(=O)NC3(CCCc4ccccc43)C2=O)c(C)n1Cc1ccco1 (stereo unspecified)', 'growth inhibition', 90),
  ('COc1ccc2c(NN=Cc3ccc(F)cc3)cc(C)nc2c1', 'growth inhibition', 101),
  ('CN1CCN(c2ccc(CNc3ccc4ncc(-c5cccc(OC(F)(F)F)c5)n4n3)cc2)CC1', 'growth inhibition', 89),
  ('CCCCCCC1(C)N=C(N)N=C(N)C1c1ccc(Cl)c(Cl)c1 (stereo unspecified)', 'growth inhibition', 94),
  ('O=c1cc(NCCCNCc2scc3c(Cl)cc(C(F)(F)F)nc23)[nH]c2ccccc12', 'growth inhibition', 99),
  ('CCn1c(-c2nonc2N)nc2cnc(Oc3cccc(NC(=O)c4ccc(OCCN(C(C)C)C(C)C)cc4)c3)cc21', 'growth inhibition', 97);

----------
# target.under.test: L-lactate dehydrogenase (Plasmodium falciparum (isolate CDC / Honduras))
# assay.method.text: PfLDH activity inhibition – cell lysate, 3D7 strain, counter-screen for P. falciparum growth inhibition project (AID 2304);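 also: 0% = vehicle and 100% = reference inhibitor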
# experimental.conditions: P. falciparum 3D7 crude extract, LDH APAD/NBT absorbance; at 2 µM; hits give high values
A collection of molecules and their measured inhibition
reported.metric: inhibition (%)

INSERT INTO measurements (molecule, reported_metric, readout_number) VALUES
  ('CN1CCC(Oc2ccc(CN3CC[C@H](NC(=O)c4cccc(C#N)c4)C3)c3ccccc23)C1 (stereo not given in full)', 'inhibition', -1),
  ('Cc1ccc(-c2csc(C)n2)c(C)c1', 'inhibition', 3),
  ('COc1ccc2ncc(F)c([C@@H](O)CN3CCC(NCc4cc5c(cn4)OCCO5)CC3)c2c1', 'inhibition', -7),
  ('O=C(/C=C/c1ccc(Cl)c(Cl)c1)NCCCCCN1CCC(NC(=O)Nc2ccc(Cl)c(C(F)(F)F)c2)CC1', 'inhibition', -1),
  ('COc1ccc2nccc([C@@H](O)CN3CCC(NC(=O)/C=C/c4ccc5cc(C)[nH]c5c4)CC3)c2c1', 'inhibition', -6),
  ('Clc1ccc(Nc2nc(-c3ccccn3)cs2)nc1', 'inhibition', -1),
  ('C[C@@H](COc1ccc(-c2ccccc2)cc1)CON1C(N)=NC(N)=NC1(C)C', 'inhibition', 3),
  ('CC(=O)N(C)c1cccc(CNc2cc(C)nc(Nc3ccc(C)cc3)n2)c1', 'inhibition', -9),
  ('CC(C)c1ccc(NC(=O)c2ccc(CN3CCCN(Cc4cccc(O)c4)CC3)cc2)cc1', 'inhibition', -4),
  ('CN(CCCCN)Cc1ccc(-c2ccc(Cl)cc2)cc1', 'inhibition', 3);

----------
# target.under.test: Calcium-dependent protein kinase 1 (Plasmodium falciparum (isolate 3D7))
# assay.method.text: PfCDPK1 kinase inhibitors, biochemical, TCAMS library (AID 1159585);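 also: inhibitors leave more ATP so luminescence rises with inhibition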
# experimental.conditions: recombinant PfCDPK1, Kinase-Glo ATP depletion luminescence
Measured potencies and affinities stand elsewhere. The source made the active and inactive calls. No cut-off is given here; in the data, nearly all actives have IC50 up to about 0.98 µM.
reported.metric: outcome

INSERT INTO results (compound, target_under_test, reported_metric, result) VALUES
  ('CCNC(=O)c1cc(S(=O)(=O)N2CCN(c3ccccn3)CC2)cs1', 'Calcium-dependent protein kinase 1 (Plasmodium falciparum (isolate 3D7))', 'outcome', 'inactive'),
  ('Cc1cccc2[nH]cc(C3CCN(CCC4CCN(C(=O)/C=C/c5ccc(Cl)c(Cl)c5)CC4)CC3)c12', 'Calcium-dependent protein kinase 1 (Plasmodium falciparum (isolate 3D7))', 'outcome', 'inactive'),
  ('COc1cccc(Nc2c(C(N)=O)cnc3ccc(-c4ccccc4)cc23)c1', 'Calcium-dependent protein kinase 1 (Plasmodium falciparum (isolate 3D7))', 'outcome', 'inactive'),
  ('O=C(N[C@@H](Cc1ccccc1)C(=O)NC1CCCc2ccccc21)c1ccc(O)c(-c2cccc(C(F)(F)F)c2)c1 (some centres undefined)', 'Calcium-dependent protein kinase 1 (Plasmodium falciparum (isolate 3D7))', 'outcome', 'inactive'),
  ('c1cc(-c2ccc(CN3CCCCC3)cc2)cc(-c2nc3ccccc3[nH]2)c1', 'Calcium-dependent protein kinase 1 (Plasmodium falciparum (isolate 3D7))', 'outcome', 'inactive'),
  ('Cc1ccc2[nH]c3c(c2c1)CC(C(=O)NCCC(C)C)NC31CCN(Cc2ccccc2)CC1 (centres undefined)', 'Calcium-dependent protein kinase 1 (Plasmodium falciparum (isolate 3D7))', 'outcome', 'inactive'),
  ('COc1ccc(CN2CCCN(Cc3cccc(C(=O)Nc4ccc(C(C)(C)C)cc4)c3)CC2)cc1', 'Calcium-dependent protein kinase 1 (Plasmodium falciparum (isolate 3D7))', 'outcome', 'inactive'),
  ('Oc1ccccc1-c1nc2cccnc2n1CCc1cccc(C(F)(F)F)c1', 'Calcium-dependent protein kinase 1 (Plasmodium falciparum (isolate 3D7))', 'outcome', 'inactive'),
  ('CC1CCc2c(C(=O)Nc3c(F)cc(F)cc3Br)csc2C1 (centres undefined)', 'Calcium-dependent protein kinase 1 (Plasmodium falciparum (isolate 3D7))', 'outcome', 'inactive');

----------
# assay.method.text: inhibition of 3D7 malaria parasite growth – strain 3D7 (AID 2306);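 also: 0% = DMSO wells and 100% = chloroquine plus artemisinin control wells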
# experimental.conditions: P. falciparum 3D7 erythrocytic growth, LDH absorbance, 72 h; at 2 µM; hits give high values
reported.metric: growth inhibition (%)

INSERT INTO measurements (molecule, reported_metric, readout_number) VALUES
  ('Cc1cc(NCCCCCCN)nc(Nc2ccc(Cl)cc2)n1', 'growth inhibition', 100),
  ('Cc1nnsc1C(=O)Nc1ccc(-c2ccc(-c3nc4ccccc4[nH]3)s2)cc1', 'growth inhibition', 92),
  ('COc1ccc2nc(-c3ccccc3)cc(NN=Cc3ccc([N+](=O)[O-])o3)c2c1', 'growth inhibition', 100),
  ('CC(C)COc1ccc(Cl)cc1Cc1ccc(-c2nc3ccc(Br)cc3[nH]2)o1', 'growth inhibition', 80),
  ('COc1cc(F)c2ncc(Cl)c(C(O)CN3CCC(NC(=O)c4ccc5c(c4)NC(=O)CS5)CC3)c2c1 (stereo not given)', 'growth inhibition', 98),
  ('Cc1cccc2[nH]c(-c3cccc(-c4ccc(C(=O)N5CCCCC5C(C)O)cc4)c3)nc12 (stereo not given)', 'growth inhibition', 100),
  ('Cc1cc(C(F)(F)F)n2nc(C(=O)N(Cc3cncn3Cc3ccccc3F)CC3CC3)cc2n1', 'growth inhibition', 100),
  ('CCCCCOc1ccc(C(=NC)N(CCCCC)CCCCC)c2ccccc12', 'growth inhibition', 96),
  ('CC1CN(Cc2cccc(F)c2)CCN1c1ccc(NC(=O)c2cccs2)cc1 (stereo not given)', 'growth inhibition', 96),
  ('CN1CC[C@@H](Oc2cc(NC(=O)Nc3ccccc3Br)ccc2Cl)C1', 'growth inhibition', 100),
  ('Cc1sc(C)c(C(F)(F)F)c1CNCCCNc1cc(=O)c2ccccc2[nH]1', 'growth inhibition', 96),
  ('O=C(/C=C/c1ccc(Cl)c(Cl)c1)NCCCCCCN1CCN(C(=O)Nc2ccc(F)c(Cl)c2)CC1', 'growth inhibition', 86),
  ('CCCN(CCC)C(C)CCC(C)Nc1c2ccc(Cl)cc2nc2ccc(OC)cc12 (stereo not given)', 'growth inhibition', 101),
  ('COc1ccc(Cn2c(Nc3cccc(C(F)(F)F)c3)nc3cc(C(=O)NCCCN(C)C)ccc32)cc1Cl', 'growth inhibition', 90),
  ('CCN1CCC(N2CCC(C(=O)Nc3cccc(-c4cccc(Cl)c4)c3)CC2)CC1', 'growth inhibition', 91),
  ('CC(=O)Nc1ccc(C(=O)Nc2cccc(-c3cccc(-c4nc5ccc(F)cc5[nH]4)c3)c2)cn1', 'growth inhibition', 99),
  ('Cc1cc(-c2cccc(CNCc3ccccc3)c2)ccc1S(=O)(=O)NCCN1CCCC1', 'growth inhibition', 98),
  ('Cc1noc(C)c1-c1ccc2c(Nc3ccc(Cl)cc3)c(C(N)=O)cnc2c1', 'growth inhibition', 94),
  ('Cc1cc(C(=O)Nc2ccc(-c3ccccc3)cc2)no1', 'growth inhibition', 90),
  ('CCCCCCCN1CC[C@@H](CCCc2ccnc3ccc(OCCN4CCNCC4)cc23)[C@@H](CC)C1', 'growth inhibition', 101);

Data provenance is PubChem BioAssay.
